target: rat striatal A2a receptors (Rattus norvegicus, UniProt P30543); experiment: Radioligand binding, [3H]CGS 21680, rat striatal A2a receptors; design: Rat cerebral cortical membranes and striatal membranes were prepared; from tissue; host or cells: rat striatal membranes; conditions: Table I; vs [3H]CGS21680 (5 nM), rat striatal A2 receptors; read-out: Ki (A2a)
Sequence (P30543 whole entry): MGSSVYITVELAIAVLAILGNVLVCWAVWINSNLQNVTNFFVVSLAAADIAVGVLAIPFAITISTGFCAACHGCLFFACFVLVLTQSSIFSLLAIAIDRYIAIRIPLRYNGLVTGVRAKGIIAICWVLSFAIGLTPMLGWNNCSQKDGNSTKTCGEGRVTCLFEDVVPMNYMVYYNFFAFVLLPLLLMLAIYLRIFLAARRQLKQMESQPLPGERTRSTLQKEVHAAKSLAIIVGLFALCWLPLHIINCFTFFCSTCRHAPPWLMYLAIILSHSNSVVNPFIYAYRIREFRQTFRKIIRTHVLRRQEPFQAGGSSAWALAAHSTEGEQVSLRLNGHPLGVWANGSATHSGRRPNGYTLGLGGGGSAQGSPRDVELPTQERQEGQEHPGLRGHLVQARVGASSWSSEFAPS
Readings of log10 of Ki for the listed molecules
measurement kind: log10 of Ki (log10 of the value in nM)

{"molecule": "CCCn1c(=O)c2[nH]c(/C=C/c3ccccc3)nc2n(CCC)c1=O [Compound 47]", "log10 of Ki": 1.64}
{"molecule": "C#CCn1c(/C=C/c2cc(OC)c(OC)c(OC)c2)nc2c1c(=O)n(C)c(=O)n2C [Compound 44e]", "log10 of Ki": 2.72}
{"molecule": "CCCn1c(=O)c2c(nc(/C=C/c3cccc(N)c3)n2C)n(CCC)c1=O [Compound 49]", "log10 of Ki": 1.28}
{"molecule": "Cn1c(=O)c2c(nc(/C=C/c3cccc(F)c3)n2C)n(C)c1=O [Compound 27b]", "log10 of Ki": 1.92}
{"molecule": "Cn1c(=O)c2c(nc(/C=C/c3cccc(Br)c3)n2C)n(C)c1=O [Compound 28b]", "log10 of Ki": 1.47}
{"molecule": "Cn1c(=O)c2[nH]c(/C=C/c3cc(F)cc(F)c3)nc2n(C)c1=O [Compound 34a]", "log10 of Ki": 2.56}
{"molecule": "Cn1c(=O)c2c(nc(/C=C/c3cccc([N+](=O)[O-])c3)n2C)n(C)c1=O [Compound 21b]", "log10 of Ki": 2.29}
{"molecule": "CN(C)c1ccc(/C=C/c2nc3c(c(=O)n(C)c(=O)n3C)n2C)cc1 [Compound 30b]", "log10 of Ki": 3.97}
{"molecule": "Cn1c(=O)c2c(nc(/C=C/c3cccc(N)c3)n2C)n(C)c1=O [Compound 22b]", "log10 of Ki": 1.76}
{"molecule": "CCCn1c(=O)c2[nH]c(/C=C/c3cc(OC)cc(OC)c3)nc2n(CCC)c1=O [Compound 53a]", "log10 of Ki": 2.32}
{"molecule": "Cn1c(=O)c2c(nc(/C=C/c3cc(F)cc(F)c3)n2C)n(C)c1=O [Compound 34b]", "log10 of Ki": 1.81}
{"molecule": "Cn1c(=O)c2c(nc(/C=C/c3cccc([N+]#N)c3)n2C)n(C)c1=O [Compound 28d]", "log10 of Ki": 1.81}
{"molecule": "CCCn1c(=O)c2[nH]c(/C=C/c3cccc(Cl)c3)nc2n(CCC)c1=O [Compound 51a]", "log10 of Ki": 2.33}
{"molecule": "CCCn1c(=O)c2[nH]c(/C=C/c3cc(F)cc(F)c3)nc2n(CCC)c1=O [Compound 54a]", "log10 of Ki": 2.54}
